# Tested on: TRPC4 (mouse), co-expressed with 5HT1a in HEK293
# test summary: calcium flux potentiators in TRPC4/5HT1a cells, confirmation, counter-screen for TRPC4 potentiator project, cell-based, second counter screen, HEK293 TRPC4/5HT1a, Fluo-4 (AID 434979)
# experimental parameters: Fluo-4 calcium flux, at 10 µM, serotonin added at its EC20 dose
Activity calls are given as the source filed them.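 How the source made its calls: active means signal rise over 3 SD above mean of control wells given weak agonist, in both repeats and first screen; inactive means the rest.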
Labels: Y for active, N for inactive

{"compound": "CC(NCCC1(Cc2ccccc2Cl)CCOC(C)(C)C1)c1cccs1 (stereo unspecified)", "study system": "TRPC4 (mouse), co-expressed with 5HT1a in HEK293", "class name": "N"}
{"compound": "CCCc1ccc(OCC(=O)NNC(=S)NC(=O)c2ccco2)cc1", "study system": "TRPC4 (mouse), co-expressed with 5HT1a in HEK293", "class name": "N"}
{"compound": "CN(C)C(CNC(=O)CCc1c[nH]c2ccccc12)c1ccccc1 (stereo unspecified)", "study system": "TRPC4 (mouse), co-expressed with 5HT1a in HEK293", "class name": "N"}
{"compound": "O=S(=O)(c1ccc(Cl)cc1)N1CCN2CCCC2C1 (stereo unspecified)", "study system": "TRPC4 (mouse), co-expressed with 5HT1a in HEK293", "class name": "Y"}
{"compound": "CCOc1ccccc1CN1CCNC(=O)C1CC(=O)N(C)CCc1ccccn1 (stereo unspecified)", "study system": "TRPC4 (mouse), co-expressed with 5HT1a in HEK293", "class name": "N"}
{"compound": "CC(=O)N1CCc2cc(Br)cc(S(=O)(=O)NCCCN(C)Cc3ccccc3)c21", "study system": "TRPC4 (mouse), co-expressed with 5HT1a in HEK293", "class name": "N"}
{"compound": "CN(C)C(CNC(=O)c1ccc2ccccc2n1)c1ccccc1 (stereo unspecified)", "study system": "TRPC4 (mouse), co-expressed with 5HT1a in HEK293", "class name": "N"}
{"compound": "COc1ccccc1NS(=O)(=O)c1cccc(C(=O)NC2CCN(Cc3ccccc3)CC2)c1", "study system": "TRPC4 (mouse), co-expressed with 5HT1a in HEK293", "class name": "N"}
{"compound": "O=C(CCc1ccccc1)NNC(=S)NC(=O)c1ccc(Cl)cc1", "study system": "TRPC4 (mouse), co-expressed with 5HT1a in HEK293", "class name": "N"}
{"compound": "Cc1cc(C)cc(C(=O)N(CCc2ccccc2)C2=CC3CCC(C2)N3C)c1 (stereo unspecified)", "study system": "TRPC4 (mouse), co-expressed with 5HT1a in HEK293", "class name": "N"}
{"compound": "Cc1ccccc1Nc1nc(NCc2ccco2)c2ccccc2n1", "study system": "TRPC4 (mouse), co-expressed with 5HT1a in HEK293", "class name": "N"}

###

# test summary: thallium flux activation in parental CHO cells, counter-screen for KCNQ1 potentiator project (AID 493006);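 on activation: fluorescence ratio of max minus min over baseline after K+ and Tl+ depolarization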
# experimental parameters: parental CHO-K1 cells, FluxOR thallium flux, at 10 µM
The source made the active and inactive calls.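 Rule for the calls: active = duplicate-averaged activation above buffer control mean plus 5 SD of those controls; inactive = the rest.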
Labels: active, inactive

{"compound": "S=c1[nH]c(-c2ccccc2)cs1", "class name": "active"}
{"compound": "Cc1ccc(Cc2c[nH]c(=S)s2)cc1", "class name": "active"}
{"compound": "Cc1ccc(NC(=S)N2CCC(N(C)CC3CCCO3)CC2)cc1 (configuration not stated)", "class name": "inactive"}
{"compound": "COc1cccc(/C=N/Nc2snc(SC)c2C#N)c1O", "class name": "inactive"}
{"compound": "O=C(NC(=S)N1CCCC1)c1ccc(Cl)cc1", "class name": "active"}
{"compound": "COc1ccc(OCC(=O)NNC(=O)c2cccs2)cc1", "class name": "active"}
{"compound": "CC(C)Cc1c2c([nH]c(=S)c1C#N)CCCC2", "class name": "inactive"}
{"compound": "CCCc1ccc2oc(C(=O)N(C)CCn3ccnc3C)c(C)c2c1", "class name": "inactive"}
{"compound": "CS(=O)(=O)c1ccc(C(=O)OCc2nnc(-c3ccccc3)o2)cc1[N+](=O)[O-]", "class name": "inactive"}
{"compound": "CC(C)(C)c1ccc(CN2N=Nc3ccccc3S2(=O)=O)cc1", "class name": "inactive"}
{"compound": "O=C(NC(=S)Nc1ccccc1Br)c1ccco1", "class name": "inactive"}
{"compound": "CC1CCc2c(sc(NS(=O)(=O)c3ccccc3)c2C(=O)OC(C)C)C1 (configuration not stated)", "class name": "active"}

###

# test summary: thallium flux activation in parental CHO cells, counter-screen for KCNQ1 potentiator project (AID 493006);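 on activation: fluorescence ratio of max minus min over baseline after K+ and Tl+ depolarization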
# experimental parameters: parental CHO-K1 cells, FluxOR thallium flux, at 10 µM; active compounds read high
Active and inactive are the calls of the source.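 Rule for the calls: active = duplicate-averaged activation above buffer control mean plus 5 SD of those controls; inactive = the rest.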

{"compound": "S=C(Nc1ccc(Cl)cc1)c1nc2ccccc2s1", "activation": "inactive"}
{"compound": "C=CCC(=O)N1CCC(n2nccc2NC(=O)CCOc2ccccc2)CC1", "activation": "inactive"}
{"compound": "CC(C)(C)n1nnnc1C(c1cc2cc3c(cc2[nH]c1=O)OCCO3)N1CCSCC1 (configuration not stated)", "activation": "inactive"}
{"compound": "O=C(NCC1CCCO1)c1ccc2c(c1)S(=O)(=O)c1ccccc1C2=O (configuration not stated)", "activation": "inactive"}
{"compound": "Cc1nn(CC(=O)NC(C)c2ccccc2)c(=O)c2ccccc12 (configuration not stated)", "activation": "150% (active)"}
{"compound": "COc1cc(OC)cc(C(=O)NNC(=O)C(=O)Nc2cc(OC)c(Cl)cc2OC)c1", "activation": "202% (active)"}
{"compound": "Cc1ccc(N=Cc2cc(Br)cc(Cl)c2O)cc1", "activation": "201% (active)"}
{"compound": "Nc1nc(C23CC4CC(CC(C4)C2)C3)cs1", "activation": "inactive"}
{"compound": "Cc1ccccc1N(CC(=O)N/N=C/c1cc(C)n(-c2ccccc2C)c1C)S(C)(=O)=O", "activation": "inactive"}
{"compound": "CC(C)(C)NC(=O)C(=O)NNC(=O)c1ccc(C(C)(C)C)cc1", "activation": "341% (active)"}
{"compound": "COc1ccc(C(=O)NC(=S)NNC(=O)c2ccc3ccccc3n2)cc1", "activation": "inactive"}
{"compound": "Fc1cccc(/C=N/Nc2ccc3ccccc3n2)c1", "activation": "inactive"}
{"compound": "CC(=O)c1c(N2CCCC2)[nH]c(-c2ccccc2)nc1=S", "activation": "inactive"}
{"compound": "CN(Cc1cn[nH]c1-c1ccc2c(c1)OCO2)C1CCOCC1", "activation": "inactive"}
{"compound": "CCOc1ccc2nc(/N=C/c3nc(-c4ccccc4)oc3O)sc2c1", "activation": "150% (active)"}
{"compound": "CCC(C(=O)OCC(=O)NC(=O)NC(C)(C)C)c1ccccc1 (configuration not stated)", "activation": "inactive"}
{"compound": "Cc1ccc2cc(/C=N/NC(=O)CN3CCCCC3)c(Cl)nc2c1", "activation": "inactive"}
{"compound": "Cc1cc(/C=N/NC(=O)c2nn(C)cc2Cl)c(C)n1-c1cccc(Br)c1", "activation": "inactive"}
{"compound": "Cc1ccc(C2=CSC3=NS(=O)(=O)CCN23)cc1", "activation": "inactive"}
{"compound": "CC(=O)N[C@H]1[C@H](OC2CCCCC2)O[C@H](COC(C)=O)[C@@H](OC(C)=O)[C@@H]1OC(C)=O", "activation": "inactive"}
{"compound": "Cc1ccc(S(=O)(=O)N(C)c2nc3ccccc3[nH]c2=S)cc1", "activation": "inactive"}
{"compound": "O=C(NC(=S)N1CCCc2ccccc21)c1ccc([N+](=O)[O-])cc1", "activation": "202% (active)"}

###

# test summary: thallium flux activation in parental CHO cells, counter-screen for KCNQ1 potentiator project (AID 493006);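 on activation: fluorescence ratio of max minus min over baseline after K+ and Tl+ depolarization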
# experimental parameters: parental CHO-K1 cells, FluxOR thallium flux, at 10 µM
Active and inactive are the calls of the source.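 How the source made its calls: active means duplicate-averaged activation above buffer control mean plus 5 SD of those controls; inactive means the rest.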
Labels: active, inactive

{"molecule": "COc1cc2c3nnc(-c4ccccc4)c-3cn(Cc3ccc(F)cc3)c2cc1OC", "class name": "inactive"}
{"molecule": "COc1ccc(Cl)cc1NC(=O)CNc1ccc(F)cc1C", "class name": "inactive"}
{"molecule": "CC1CN(S(=O)(=O)c2ccc(Cl)c(C(F)(F)F)c2)CC(C)O1 (stereo not drawn)", "class name": "inactive"}
{"molecule": "O=C(c1ccc(Cl)cc1)c1c[nH]c(C(=O)C(Cl)(Cl)Cl)c1", "class name": "inactive"}
{"molecule": "O=C(NC(=S)Nc1ccccc1)c1cncc(C#Cc2ccccc2)c1", "class name": "inactive"}
{"molecule": "COc1cc(OC)cc(C(=O)NC(=S)NNC(=O)[C@H]2C[C@@H]2c2ccccc2)c1", "class name": "inactive"}
{"molecule": "COC(=O)c1cn(NC(=O)Cc2ccc(Cl)c(Cl)c2)c(=O)c2ccccc12", "class name": "inactive"}
{"molecule": "Cn1c(=NC(=O)c2ccco2)sc2cccc(F)c21", "class name": "inactive"}
{"molecule": "CC1CCCCN1CCCNC(=O)Cn1ncc2c([nH]c3ccccc32)c1=O (stereo not drawn)", "class name": "inactive"}
{"molecule": "CCN1C(=O)/C(=C/c2ccc(C)s2)NC1=S", "class name": "active"}
{"molecule": "CC(=O)Nc1ccc(/C=N/N2C(=O)NC(C)(c3ccc(OC(F)F)cc3)C2=O)cc1 (stereo not drawn)", "class name": "active"}
{"molecule": "O=C(NCCCn1ccnc1)c1cc(C2CC2)on1", "class name": "inactive"}
{"molecule": "CCCCn1c(N)c(C(=S)NC(=O)CC(C)(C)C)c(=O)n(C)c1=O", "class name": "active"}
{"molecule": "O=C(NC(=S)Nc1ccc2c(c1)OCCO2)c1ccco1", "class name": "active"}
{"molecule": "CCc1ccc(/C=N/NC(=O)Cc2cccn2C)cc1", "class name": "inactive"}
{"molecule": "Cc1cccc(/N=C/c2sc3ccccc3c2O)n1", "class name": "inactive"}
{"molecule": "COc1cc(C(=O)NNC(=O)C2CC2)cc(OC)c1OC", "class name": "inactive"}
{"molecule": "Cc1cccc(N2CCN(C(=O)Cn3sc4nc(C)cc(C)c4c3=O)CC2C)c1 (stereo not drawn)", "class name": "inactive"}
{"molecule": "CSC(=S)N/N=C(\\C)c1ccccc1", "class name": "active"}
{"molecule": "Cc1ccc2nc(N3CCN(Cc4ccc(F)cc4)C3=O)c(C)cc2c1", "class name": "inactive"}
{"molecule": "COc1ccc(CN(C)C(=O)c2cccc(NS(=O)(=O)c3ccccc3)c2)cc1F", "class name": "inactive"}
{"molecule": "O=C(Nc1cccc2cccnc12)c1ccc(Br)o1", "class name": "inactive"}
{"molecule": "CCOc1ccccc1NC1=C(Cl)C(=O)N(c2ccccc2)C1=O", "class name": "inactive"}

Data provenance: PubChem BioAssay
